assay: glutamate transport activators, MN-1 cells, MN-1 cell line (AID 1612); details: MN-1 motor neuron cells, stronger effect = higher value;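 note: tested at 1 µM final; 0% = mean of DMSO vehicle wells on each plate; positive means more glutamate uptake than control and negative means less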

compound | glutamate uptake change [%]
CN1Cc2c(N)cccc2C(c2ccccc2)C1 (configuration not stated) | -14.3
COc1ccc(NS(=O)(=O)c2ccc(N)cc2)nn1 | 8.78
Nc1ccc(S(=O)(=O)NC(=O)c2ccccc2)cc1 | -23.6
Cc1nnc(NS(=O)(=O)c2ccc(N)cc2)s1 | 17.5
O=C(OCC(O)CO)c1ccccc1Nc1ccnc2cc(Cl)ccc12 (configuration not stated) | 4.05
CN(C)CCCN1c2ccccc2Sc2ccccc21 | 20.4
CC1CCC(NC(=O)N(CCCl)N=O)CC1 (configuration not stated) | -7.99

###

assay: viability loss with induced miR-34 in A549 – imaging, A549 dox-inducible miR-34, nuclei and caspase counts, primary screen (AID 1347080); conditions: A549 miR-34 inducible, Hoechst nuclei count, 48 h; stronger effect = lower value; cell number ratio, induced over uninduced
Returns: string. Value is true if measured fold change is below 0.9, and false if it is greater than or equal to it.

compound | category
Cn1c(=O)c2c(ncn2CCO)n(C)c1=O | false
CN1CCC(=C2c3ccccc3Sc3ccccc32)CC1 | true
CN(C)c1ccc2nc3ccc(=[N+](C)C)cc-3sc2c1 | false
C[C@](N)(Cc1ccc(O)cc1)C(=O)O | false
CC(C)NC[C@@H](O)COc1cccc2ccccc12 | false
NC/C=C/C(=O)O | false
O=C(CCBr)N1CCN(C(=O)CCBr)CC1 | true
Cc1ccc(C(=O)C(C)CN2CCCCC2)cc1 (centres undefined) | false
CC(=O)Nc1ccc(CC(=O)O)cc1 | false
CCCCc1ccc2nc(NC(=O)OC)[nH]c2c1 | false
CCCCC(CC)CN1CN(CC(CC)CCCC)CC(C)(N)C1 (centres undefined) | true
Cc1cc(O)cc(C)c1Cl | false
CC(=O)Oc1cccc(O)c1 | true
O=c1oc2cc(O)ccc2s1 | false
O=C1OC(c2ccc(O)cc2)(c2ccc(O)cc2)c2ccccc21 | true
COc1cc(C)c(Cc2cnc(N)nc2N)cc1OC | false
C[C@]12CCC(=O)C=C1C=C[C@@H]1[C@@H]2CC[C@@]2(C)[C@H]1CC[C@@]21CCC(=O)O1 | true
COc1cc(/C=C/C(=O)CC(=O)/C=C/c2ccc(O)c(OC)c2)ccc1O | false
CC(Cc1cccc(C(F)(F)F)c1)NCCOC(=O)c1ccccc1 (centres undefined) | true
CC(=O)[C@@]1(O)CC[C@H]2[C@@H]3C[C@H](C)C4=CC(=O)C=C[C@]4(C)[C@@]3(F)[C@@H](O)C[C@@]21C | true
O=c1c(-c2ccccc2)c1-c1ccccc1 | true
CCN(CC)C(=O)c1cccc(C)c1 | false
C=CCc1ccc(O)c(OC)c1 | false
CO[C@@]1(NC(=O)C(C(=O)O)c2ccc(O)cc2)C(=O)N2C(C(=O)O)=C(CSc3nnnn3C)CO[C@@H]21 (some centres undefined) | true

###

experiment: inhibition of endothelial tube formation, primary screen, imaging, VEGF stimulated, CD31 staining, tube area, NPC library (AID 1117340); conditions: VEGF-stimulated ADSC/ECFC co-culture, at 10 µM, stronger effect = higher value

molecule | tube area decrease / %
CC(C)COCC(CN(Cc1ccccc1)c1ccccc1)N1CCCC1 (stereo not drawn) | 32.8
O=C(O)/C=C/c1ccc(Cn2ccnc2)cc1 | 3
CN1C(C)(C)CCCC1(C)C | 2.5
CCCCCCCCCCCCCCCCCCOCC(O)CO (stereo not drawn) | 7.6
Cc1nnc(NS(=O)(=O)c2ccc(N)cc2)s1 | 19.3
CCCCCCCCNC(C)C(O)c1ccc(SC(C)C)cc1 (stereo not drawn) | 45.2
O=C1C(O)=C(O)C(=O)C(O)=C1O | -10.5
NC[C@H](O)c1ccc(O)c(O)c1 | -25.8
O=C(N[C@H](CO)[C@H](O)c1ccc([N+](=O)[O-])cc1)C(Cl)Cl | 12.5
O=C(O)c1cccnc1Nc1cccc(C(F)(F)F)c1 | 12.7
CC(C)NCC(O)COc1ccc(CCOCC2CC2)cc1 (stereo not drawn) | 26
CCCCCCCC/C=C\CCCCCCCC(=O)NCc1ccc(O)c(OC)c1 | 17.4
CN(C)CCC=C1c2ccccc2C=Cc2ccccc21 | 1.5

###

assay: EMT-state selective cytotoxicity in co-culture – imaging, PC-3E GFP, TEM4-18 mCherry, primary screen (AID 1345086); conditions: PC-3E GFP / TEM4-18 mCherry co-culture, imaging cell counts; measured here: mesenchymal TEM4-18 mCherry cell survival; at 1 µM;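 note: cells exposed to compound for 72 h before imaging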
We begin with a simple list: items and their reported normalised cell number.
readout-type: normalised cell number

compound | value-observed
CCN(CC)CCNC(=O)c1cc(Br)c(N)cc1OC | 0.89
O=C1c2ccccc2C(=O)c2c1ccc(O)c2O | 0.91
COC1=C(OC)C(=O)C(CCCCCCCCCCO)=C(C)C1=O | 0.98
NS(=O)(=O)c1cc2c(cc1Cl)NC(C1CC3C=CC1C3)NS2(=O)=O (stereo not drawn) | 1.23
Nc1ccc(N=Nc2ccccc2)c(N)n1 | 0.92
CNC1(C)C2CCC(C2)C1(C)C (stereo not drawn) | 0.97
CCCCOC(=O)c1ccc(N)cc1 | 1.04
c1ccc(CN(CC2=NCCN2)c2ccccc2)cc1 | 1.34
COc1cc2nc(N3CCN(C(=O)C4COc5ccccc5O4)CC3)nc(N)c2cc1OC (stereo not drawn) | 0.83
CCC1(C)CC(=O)NC1=O (stereo not drawn) | 1.31
Cc1cc(CC(=O)O)n(C)c1C(=O)c1ccc(Cl)cc1 | 0.98
CC1CCc2cc(F)cc3c(=O)c(C(=O)O)cn1c23 (stereo not drawn) | 1.05
C#CCN[C@@H]1CCc2ccccc21 | 0.94

###

test system: R275C/beta1; test: BK channel mutant inhibitors and activators – cell-based, U2OS BacMam, thallium flux, beta subunits, selectivity assay, profiling panel (AID 1259406); settings: U2OS BacMam BK variants, at 30 µM;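 note: initial slope of Thallos dye fluorescence rise after thallium is added; log ratio against the mean of 0.3% DMSO vehicle wells on the same plate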
readout-type: log fold change Tl+ flux

compound | value-observed
Cc1cccc(C)c1NC(=O)C(C)N (configuration not stated) | -0.0204
CCN(CC)CCNC(=O)c1cc(Cl)c(N)cc1OC | -0.0145
COCc1c(C(C)C)nc(C(C)C)c(/C=C/[C@@H](O)C[C@@H](O)CC(=O)O)c1-c1ccc(F)cc1 | 0.391
NS(=O)(=O)Cc1noc2ccccc12 | 0.0189
C[C@@H]1CN(CCCn2c3ccccc3c3ccccc32)C[C@H](C)N1 | 0.219
CC(=O)Oc1ccccc1C(=O)Nc1ncc([N+](=O)[O-])s1 | 0.0452
O=C1[C@H]2CCCC[C@H]2C(=O)N1CCCCN1CCN(c2nsc3ccccc23)CC1 | 0.107
Nc1nc2c(ncn2CCC(CO)CO)c(=O)[nH]1 | 0.00335
CC(C)c1nc(CN(C)C(=O)N[C@H](C(=O)N[C@@H](Cc2ccccc2)C[C@H](O)[C@H](Cc2ccccc2)NC(=O)OCc2cncs2)C(C)C)cs1 | 0.0641
CN(Cc1cnc2nc(N)nc(N)c2n1)c1ccc(C(=O)N[C@@H](CCC(=O)O)C(=O)O)cc1 | -0.0323
CCOc1cc(N)c(Cl)cc1C(=O)NCC1CN(Cc2ccc(F)cc2)CCO1 (configuration not stated) | 0.0447
Cc1ncc([N+](=O)[O-])n1CC(O)CCl (configuration not stated) | -0.0317
CCc1c(C)[nH]c2c1C(=O)C(CN1CCOCC1)CC2 (configuration not stated) | -0.0312
Cc1ccnc2c1NC(=O)c1cccnc1N2C1CC1 | -0.00377
CCN1CC(CCN2CCOCC2)C(c2ccccc2)(c2ccccc2)C1=O (configuration not stated) | -0.00917
CN(C)CC/C=C1/c2ccccc2COc2ccc(CC(=O)O)cc21 | 0.0368
COc1cc(C(=O)NC2CCCNC2)cc(OC)c1OC (configuration not stated) | -0.0128
O=C1CCc2ccc(OCCCCN3CCN(c4cccc(Cl)c4Cl)CC3)cc2N1 | 0.056
CC1CCN(CCCC(=O)c2ccc(F)cc2)CC1 | -0.0458
CC(=O)O[C@H]1C[C@@H]2CC[C@@H]3[C@H](CC[C@@]4(C)[C@H]3C[C@H]([N+]3(C)CCCCC3)[C@@H]4OC(C)=O)[C@@]2(C)C[C@@H]1N1CCCCC1 | 0.00114
CC(C(=O)O)c1ccc(CC2CCCC2=O)cc1 (configuration not stated) | 0.00328
CC(Oc1c(Cl)cccc1Cl)C1=NCCN1 (configuration not stated) | 0.0393

###

We begin with a simple list: items and their reported glutamate uptake change.
assay: glutamate transport activators, MN-1 cells, MN-1 cell line (AID 1612); conditions: MN-1 motor neuron cells, stronger effect = higher value;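 note: tested at 1 µM final; 0% = mean of DMSO vehicle wells on each plate; positive means more glutamate uptake than control and negative means less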

compound | glutamate uptake change / %
CCN(CC)C(C)CN1c2ccccc2Sc2ccccc21 (centres undefined) | 47.6
NC(=O)c1ncn([C@@H]2O[C@H](CO)[C@@H](O)[C@H]2O)n1 | 14.1
CCN(CC)CCOC(=O)C(c1ccccc1)c1ccccc1 | 15.8
CCOc1ccc(Cc2nccc3cc(OCC)c(OCC)cc23)cc1OCC | 33.7
O=C(O)c1ccccc1O | 15.9
Cc1ccc(C(C)C)cc2c(C)ccc1-2 | 4.08
NS(=O)(=O)c1cc(C(=O)O)c(NCc2ccco2)cc1Cl | -10.7
Cc1cccc(C)c1OCC(C)N (centres undefined) | 6.77
Oc1ccc(Cl)c2cccnc12 | 42.4
